- PROCEDURE SUMMARY: Determination of inhibitor concentration in mouse plasma after intraperitoneal and oral dosing
- Assay type: in vivo
- RUN CONDITIONS: female, IP, 25 mg/kg, vehicle PEG400:H2O pH 2.3 30:70, read-out: Cmax
This listing pairs compounds with measured Cmax.
ASSAY METRIC: Cmax

>  <COMPOUND>
CCCn1nc(C)cc1C(=O)Nc1cccc(C(=O)c2ccc3c(/C=C/c4ccccn4)n[nH]c3c2)c1 [Example 41(r)]

>  <VALUE OBSERVED>
> 5000 ng/mL

$$$$
>  <COMPOUND>
O=C(NCc1cccc(F)c1)c1ccccc1Sc1ccc2c(/C=C/c3ccccn3)n[nH]c2c1

>  <VALUE OBSERVED>
> 4000 ng/mL

$$$$

* * *

This listing pairs compounds with measured Ki.
- MEASURED ON: unphosphorylated VEGF-R2Δ50 (FLVK) (Homo sapiens, UniProt P35968, DEL940-989/E990V)
- Sequence (P35968 with tags, fused parts or gaps DEL940-989/E990V limits assumed): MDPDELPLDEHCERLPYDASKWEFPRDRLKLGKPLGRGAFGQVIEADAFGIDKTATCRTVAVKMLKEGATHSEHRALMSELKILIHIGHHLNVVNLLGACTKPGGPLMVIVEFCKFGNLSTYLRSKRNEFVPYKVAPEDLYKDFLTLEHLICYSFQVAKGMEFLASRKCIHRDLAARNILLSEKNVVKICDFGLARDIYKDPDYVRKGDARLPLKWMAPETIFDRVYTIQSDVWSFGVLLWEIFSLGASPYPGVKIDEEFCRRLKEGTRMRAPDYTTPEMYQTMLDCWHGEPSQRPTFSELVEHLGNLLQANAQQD
- PROCEDURE SUMMARY: VEGF-R2 coupled spectrophotometric assay, unphosphorylated VEGF-R2Δ50 (FLVK)
- RUN CONDITIONS: FLVK Ki, Table 1

>  <COMPOUND>
O=C(Nc1cccc(Oc2ccc3c(/C=C/c4cccs4)n[nH]c3c2)c1)c1ccccc1 [Example 30(a)]

>  <Ki / nM>
1.7

$$$$
>  <COMPOUND>
C(=C\c1n[nH]c2cc(Oc3ccccc3)ccc12)/c1ccccc1 [Example 8(a), 3-(E-Styryl)-6-phenoxy-1H-indazole]

>  <Ki / nM>
3.2

$$$$
>  <COMPOUND>
O=C(Nc1cccc(C(=O)c2ccc3c(-c4nc5cccnc5[nH]4)n[nH]c3c2)c1)c1ccccc1 [Example 42(d)]

>  <Ki / nM>
1.7

$$$$
>  <COMPOUND>
O=C(c1cccc(NC(=O)c2cccc(Cl)n2)c1)c1ccc2c(/C=C/c3ccccc3)n[nH]c2c1 [Example 19(m)]

>  <Ki / nM>
0.68

$$$$
>  <COMPOUND>
CC(=O)Nc1cccc(C(=O)c2ccc3c(/C=C/c4ccccc4)n[nH]c3c2)c1 [Example 19(a)]

>  <Ki / nM>
13.8

$$$$
>  <COMPOUND>
CN(c1cccc(NC(=O)c2ccccc2)c1)c1ccc2c(/C=C/c3ccc4c(c3)OCO4)n[nH]c2c1 [Example 16(a)]

>  <Ki / nM>
0.08

$$$$
>  <COMPOUND>
CNC(C(=O)Nc1cccc(C(=O)c2ccc3c(/C=C/c4ccccc4)n[nH]c3c2)c1)c1ccccc1 (stereo not shown) [Example 19(p)]

>  <Ki / nM>
1.5

$$$$

* * *

- MEASURED ON: human CHK1 (FL-CHK1) (Homo sapiens, UniProt O14757)
- Construct: C-terminally His-tagged full-length human CHK1 (FL-CHK1); made in house; host or cells: baculovirus/insect cell system
- Sequence (O14757 1-476): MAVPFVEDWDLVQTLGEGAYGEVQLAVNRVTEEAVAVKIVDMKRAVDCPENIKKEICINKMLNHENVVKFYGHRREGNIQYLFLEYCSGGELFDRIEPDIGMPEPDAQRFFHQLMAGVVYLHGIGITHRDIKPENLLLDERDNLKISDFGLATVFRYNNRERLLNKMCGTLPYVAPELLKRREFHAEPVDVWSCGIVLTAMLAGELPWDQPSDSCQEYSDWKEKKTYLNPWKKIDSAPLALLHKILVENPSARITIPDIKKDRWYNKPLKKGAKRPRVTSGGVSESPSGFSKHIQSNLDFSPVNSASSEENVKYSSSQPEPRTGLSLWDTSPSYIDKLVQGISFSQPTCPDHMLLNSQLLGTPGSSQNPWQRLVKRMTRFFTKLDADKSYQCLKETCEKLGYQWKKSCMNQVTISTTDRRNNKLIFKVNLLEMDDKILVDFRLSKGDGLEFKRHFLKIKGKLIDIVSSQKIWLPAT
- PROCEDURE SUMMARY: CHK1 assay (coupled spectrophotometric, Syntide-2)
- Assay type: biochemical
- RUN CONDITIONS: Table 3; read-out: CHK-1 Ki
- Text: CHK1 Construct for Assay: C-terminally His-tagged full-length human CHK1 (FL-CHK1) was expressed using the baculovirus/insect cell system. […] The protein was purified by conventional chromatographic techniques. The production of ADP from ATP that accompanies phosphoryl transfer to the synthetic substrate peptide Syntide-2 ([…]) was coupled to oxidation of NADH using phosphoenolpyruvate (PEP) through the actions of pyruvate kinase (PK) and lactic dehydrogenase (LDH). […]
pKi: −log10 of the molar value.
This listing pairs molecules with measured pKi.

>  <MOLECULE>
Cc1nc(/C=C/c2n[nH]c3cc(-c4ccncc4)ccc23)cs1

>  <pKi>
6.27

$$$$
>  <MOLECULE>
Oc1ccc(-c2ccc3c(/C=C/c4ccccc4)n[nH]c3c2)cc1O

>  <pKi>
7.74

$$$$
>  <MOLECULE>
C(=C\c1n[nH]c2cc(-c3ccncc3)ccc12)/c1ccc(-c2ccccc2)cc1

>  <pKi>
5.00

$$$$
>  <MOLECULE>
C(=C\c1n[nH]c2cc(-c3cccc4[nH]ccc34)ccc12)/c1ccccc1

>  <pKi>
6.07

$$$$
>  <MOLECULE>
Fc1cccc(F)c1/C=C/c1n[nH]c2cc(-c3ccncc3)ccc12

>  <pKi>
4.34

$$$$
>  <MOLECULE>
c1ccc2[nH]c(-c3n[nH]c4cc(-c5ccncc5)ccc34)nc2c1

>  <pKi>
5.00

$$$$
>  <MOLECULE>
O=C(Nc1ccc(O)cc1)c1ccc2c(-c3nc4cc5ccccc5cc4[nH]3)n[nH]c2c1

>  <pKi>
6.17

$$$$
>  <MOLECULE>
C(=C\c1n[nH]c2cc(-c3ccncc3)ccc12)/c1ccccc1

>  <pKi>
6.46

$$$$
>  <MOLECULE>
C(=N\n1cccc1)/c1n[nH]c2cc(-c3ccncc3)ccc12

>  <pKi>
7.06

$$$$
>  <MOLECULE>
O=C(Nc1ccc(O)cc1)c1ccc2c(-c3nc4ccccc4[nH]3)n[nH]c2c1

>  <pKi>
6.52

$$$$
>  <MOLECULE>
Fc1ccccc1/C=C/c1n[nH]c2cc(-c3ccncc3)ccc12

>  <pKi>
6.85

$$$$
>  <MOLECULE>
COc1ccc(-c2ccc3c(/C=C/c4ccccc4)n[nH]c3c2)cn1

>  <pKi>
4.62

$$$$
>  <MOLECULE>
C(=C\c1n[nH]c2cc(-c3ccncc3)ccc12)/c1ccc[nH]1

>  <pKi>
7.14

$$$$
>  <MOLECULE>
O=C(NOCc1ccccc1)c1ccc2c(-c3nc4ccccc4[nH]3)n[nH]c2c1

>  <pKi>
5.14

$$$$
>  <MOLECULE>
O=C(Nc1ccc(O)cc1)c1ccc2c(-c3nc4cc(C(F)(F)F)ccc4[nH]3)n[nH]c2c1

>  <pKi>
6.00

$$$$
>  <MOLECULE>
Oc1ccc(-c2ccc3c(/C=C/c4ccccc4)n[nH]c3c2)cc1

>  <pKi>
7.84

$$$$
>  <MOLECULE>
C(=C\c1n[nH]c2cc(-c3ccncc3)ccc12)/c1ccc2c(c1)OCO2 [Example 29(r)]

>  <pKi>
7.14

$$$$
